# Tested system: FAP (UniProt Q12884 1-760)
# Sequence (Q12884 26-760): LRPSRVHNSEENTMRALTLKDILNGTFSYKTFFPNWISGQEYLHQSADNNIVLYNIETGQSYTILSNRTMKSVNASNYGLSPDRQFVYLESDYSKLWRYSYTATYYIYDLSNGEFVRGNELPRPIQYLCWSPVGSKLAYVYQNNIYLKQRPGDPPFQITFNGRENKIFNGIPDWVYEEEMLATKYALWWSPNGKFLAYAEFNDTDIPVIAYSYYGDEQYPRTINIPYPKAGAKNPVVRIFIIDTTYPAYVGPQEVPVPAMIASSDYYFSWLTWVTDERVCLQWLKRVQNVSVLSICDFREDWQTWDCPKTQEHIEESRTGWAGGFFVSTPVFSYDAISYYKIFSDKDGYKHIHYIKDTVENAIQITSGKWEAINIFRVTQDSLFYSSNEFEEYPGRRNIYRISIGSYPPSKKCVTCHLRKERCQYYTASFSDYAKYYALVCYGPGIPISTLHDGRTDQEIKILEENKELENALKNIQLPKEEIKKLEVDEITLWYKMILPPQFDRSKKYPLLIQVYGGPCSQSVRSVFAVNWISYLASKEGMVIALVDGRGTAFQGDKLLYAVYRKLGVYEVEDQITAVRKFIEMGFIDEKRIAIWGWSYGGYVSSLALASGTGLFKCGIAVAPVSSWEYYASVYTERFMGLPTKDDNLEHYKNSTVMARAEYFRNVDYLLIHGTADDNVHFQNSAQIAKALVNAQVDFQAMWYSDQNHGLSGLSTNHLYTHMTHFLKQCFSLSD
# Measurement description: enzyme inhibition assay (panel of proteases); cyc-LHSPW tested against a panel of cancer-associated proteases (Fig. 5A); conditions not given
pKi: −log10 of the molar value. Positions of bridges follow the written chain, without caps; N, C: chain ends. No end group written: not given here.
Measure: pKi

                                binder  reported_measurement
0  CLHSPWC (disulfide 1-7) [cyc-LHSPW]                < 4.00
